- System: NCI-H522
- Test method notes: Growth inhibition of human NCI-H522 cells after 48 hrs
- Type: functional
- Condition: NCI-H522, 48 h, read-out: pTGI (converted)
Below: a set of entries, each annotated with reported TGI.
Enter your answer as a number in µM; do not include the unit.

Recorded results for 3 compounds are shown here.
stdin: Quick check: TGI of "COc1ccc(N(CC(=O)NCCC[Te]c2ccccc2)C(=O)c2ccccc2)cc1" ?
stdout: 8.71

stdin: Quick check: TGI of "CC1=C(SCCC(=O)OCC(=O)NCCC[Te]c2ccccc2)C(=O)c2ccccc2C1=O" ?
stdout: 10.2

stdin: Quick check: TGI of "COc1ccc(N(CC(=O)NCCC[Te]c2ccccc2)C(=O)CCSC2=C(C)C(=O)c3ccccc3C2=O)cc1" ?
stdout: 3.39

Kindly consider the entry below.
stdin: Quick check: TGI of "COc1ccc(N(CC(=O)NCCC[Te]c2ccccc2)C(=O)CNC(=O)OC(C)(C)C)cc1" ?
stdout: 10.5

* * *

- Test system: Escherichia coli
- Test method notes: Antimicrobial activity against Escherichia coli tolC assessed as inhibition at 20 ug/6 mm disk after 1 to 2 days by agar diffusion assay
- Format: functional
Reported endpoint: diameter of the inhibition zone (DIZ) (mm)
Enter your answer as a number in mm; do not include the unit.

stdin: Quick check: diameter of the inhibition zone (DIZ) of "CC(C)(C)OC(=O)NCC(=O)OCC(=O)NCCC[Te]c1ccccc1" ?
stdout: 12

stdin: Quick check: diameter of the inhibition zone (DIZ) of "COc1ccc(N(CC(=O)NCCC[Te]c2ccccc2)C(=O)/C=C/c2ccccc2)cc1" ?
stdout: 11

stdin: Quick check: diameter of the inhibition zone (DIZ) of "COc1ccc(N(CC(=O)NCCCSc2ccccc2)C(=O)C#Cc2ccccc2)cc1" ?
stdout: 0

stdin: Quick check: diameter of the inhibition zone (DIZ) of "COc1ccc(N(CC(=O)NCCC[Se]c2ccccc2)C(=O)CNC(=O)OC(C)(C)C)cc1" ?
stdout: 0

stdin: Quick check: diameter of the inhibition zone (DIZ) of "COc1ccc(N(CC(=O)NCCCSc2ccccc2)C(=O)/C=C/c2ccccc2)cc1" ?
stdout: 0

stdin: Quick check: diameter of the inhibition zone (DIZ) of "COc1ccc(N(CC(=O)NCCC[Te]c2ccccc2)C(=O)c2ccccc2)cc1" ?
stdout: 11

stdin: Quick check: diameter of the inhibition zone (DIZ) of "COc1ccc(N(CC(=O)NCCC[Se]c2ccccc2)C(=O)c2ccccc2)cc1" ?
stdout: 0

stdin: Quick check: diameter of the inhibition zone (DIZ) of "COc1ccc(N(CC(=O)NCCC[Se]c2ccccc2)C(=O)/C=C/c2ccccc2)cc1" ?
stdout: 0

Kindly consider the entry below.
stdin: Quick check: diameter of the inhibition zone (DIZ) of "COc1ccc(N(CC(=O)NCCCSc2ccccc2)C(=O)CCSC2=C(C)C(=O)c3ccccc3C2=O)cc1" ?
stdout: 0

* * *

- System: TK-10
- Test method notes: Growth inhibition of human TK10 cells after 48 hrs
- Type: functional
- Condition: TK-10, 48 h
Reported endpoint: GI50
Answer with the value and then the unit.

Recorded results for 3 compounds are shown here.
stdin: Quick check: GI50 of "COc1ccc(N(CC(=O)NCCC[Te]c2ccccc2)C(=O)CNC(=O)OC(C)(C)C)cc1" ?
stdout: 3.89 µM

stdin: Quick check: GI50 of "CC1=C(SCCC(=O)OCC(=O)NCCC[Te]c2ccccc2)C(=O)c2ccccc2C1=O" ?
stdout: 3.8 µM

stdin: Quick check: GI50 of "COc1ccc(N(CC(=O)NCCC[Te]c2ccccc2)C(=O)c2ccccc2)cc1" ?
stdout: 3.89 µM

Kindly consider the entry below.
stdin: Quick check: GI50 of "COc1ccc(N(CC(=O)NCCC[Te]c2ccccc2)C(=O)CCSC2=C(C)C(=O)c3ccccc3C2=O)cc1" ?
stdout: 2.82 µM

* * *

- System: 786-0
- Test method notes: Growth inhibition of human 786-0 cells after 48 hrs
- Assay type: functional
- Condition: 786-0, 48 h
Below: a set of entries, each annotated with reported GI50.
Enter your answer as a number in µM; do not include the unit.

Recorded results for 3 compounds are shown here.
stdin: Quick check: GI50 of "COc1ccc(N(CC(=O)NCCC[Te]c2ccccc2)C(=O)CNC(=O)OC(C)(C)C)cc1" ?
stdout: 3.72

stdin: Quick check: GI50 of "COc1ccc(N(CC(=O)NCCC[Te]c2ccccc2)C(=O)c2ccccc2)cc1" ?
stdout: 5.13

stdin: Quick check: GI50 of "COc1ccc(N(CC(=O)NCCC[Te]c2ccccc2)C(=O)CCSC2=C(C)C(=O)c3ccccc3C2=O)cc1" ?
stdout: 2.09

Kindly consider the entry below.
stdin: Quick check: GI50 of "CC1=C(SCCC(=O)OCC(=O)NCCC[Te]c2ccccc2)C(=O)c2ccccc2C1=O" ?
stdout: 2.69

* * *

- Tested on: Klebsiella pneumoniae
- Test method notes: Antimicrobial activity against Klebsiella pneumoniae assessed as inhibition at 20 ug/6 mm disk after 1 to 2 days by agar diffusion assay
- Type: functional
Reported endpoint: diameter of the inhibition zone (DIZ) (mm)
Enter your answer as a number in mm; do not include the unit.

stdin: Quick check: diameter of the inhibition zone (DIZ) of "COc1ccc(N(CC(=O)NCCC[Se]c2ccccc2)C(=O)CCSC2=C(C)C(=O)c3ccccc3C2=O)cc1" ?
stdout: 0

Next:
stdin: Quick check: diameter of the inhibition zone (DIZ) of "COc1ccc(N(CC(=O)NCCCSc2ccccc2)C(=O)C#Cc2ccccc2)cc1" ?
stdout: 0

stdin: Quick check: diameter of the inhibition zone (DIZ) of "COc1ccc(N(CC(=O)NCCC[Te]c2ccccc2)C(=O)/C=C/c2ccccc2)cc1" ?
stdout: 13

stdin: Quick check: diameter of the inhibition zone (DIZ) of "COc1ccc(N(CC(=O)NCCC[Te]c2ccccc2)C(=O)c2ccccc2)cc1" ?
stdout: 12

* * *

- Test method notes: Growth inhibition of human OVCAR3 cells after 48 hrs
- Format: functional
- Condition: OVCAR-3, 48 h, read-out: pTGI (converted)
Below: a set of entries, each annotated with reported TGI.
Enter your answer as a number in µM; do not include the unit.

Recorded results for 3 compounds are shown here.
stdin: Quick check: TGI of "COc1ccc(N(CC(=O)NCCC[Te]c2ccccc2)C(=O)CNC(=O)OC(C)(C)C)cc1" ?
stdout: 7.94

stdin: Quick check: TGI of "COc1ccc(N(CC(=O)NCCC[Te]c2ccccc2)C(=O)CCSC2=C(C)C(=O)c3ccccc3C2=O)cc1" ?
stdout: 2.04

stdin: Quick check: TGI of "COc1ccc(N(CC(=O)NCCC[Te]c2ccccc2)C(=O)c2ccccc2)cc1" ?
stdout: 20

Kindly consider the entry below.
stdin: Quick check: TGI of "CC1=C(SCCC(=O)OCC(=O)NCCC[Te]c2ccccc2)C(=O)c2ccccc2C1=O" ?
stdout: 5.5

* * *

Below: a set of entries, each annotated with reported CC50.
- Test system: NCI-H460
- Test method notes: Growth inhibition of human NCI-H460 cells after 48 hrs
- Assay type: functional
- Condition: NCI-H460, 48 h, read-out: pLC50 (the source's name) (converted)
Enter your answer as a number in µM; do not include the unit.

stdin: Quick check: CC50 of "COc1ccc(N(CC(=O)NCCC[Te]c2ccccc2)C(=O)CCSC2=C(C)C(=O)c3ccccc3C2=O)cc1" ?
stdout: 4.68

stdin: Quick check: CC50 of "COc1ccc(N(CC(=O)NCCC[Te]c2ccccc2)C(=O)c2ccccc2)cc1" ?
stdout: 8.71

stdin: Quick check: CC50 of "COc1ccc(N(CC(=O)NCCC[Te]c2ccccc2)C(=O)CNC(=O)OC(C)(C)C)cc1" ?
stdout: 7.59

Next:
stdin: Quick check: CC50 of "CC1=C(SCCC(=O)OCC(=O)NCCC[Te]c2ccccc2)C(=O)c2ccccc2C1=O" ?
stdout: 51.3

* * *

- Test system: SF-268
- Test method notes: Growth inhibition of human SF268 cells after 48 hrs
- Assay type: functional
- Condition: SF-268, 48 h, read-out: pLC50 (the source's name) (converted)
Below: a set of entries, each annotated with reported CC50.
Enter your answer as a number in µM; do not include the unit.

Recorded results for 3 compounds are shown here.
stdin: Recorded CC50 for "CC1=C(SCCC(=O)OCC(=O)NCCC[Te]c2ccccc2)C(=O)c2ccccc2C1=O" with SF-268, please?
stdout: 37.2

stdin: Recorded CC50 for "COc1ccc(N(CC(=O)NCCC[Te]c2ccccc2)C(=O)c2ccccc2)cc1" with SF-268, please?
stdout: 66.1

stdin: Recorded CC50 for "COc1ccc(N(CC(=O)NCCC[Te]c2ccccc2)C(=O)CCSC2=C(C)C(=O)c3ccccc3C2=O)cc1" with SF-268, please?
stdout: 5.5

Next:
stdin: Recorded CC50 for "COc1ccc(N(CC(=O)NCCC[Te]c2ccccc2)C(=O)CNC(=O)OC(C)(C)C)cc1" with SF-268, please?
stdout: 100

* * *

- Test method notes: Growth inhibition of human OVCAR3 cells after 48 hrs
- Type: functional
- Condition: OVCAR-3, 48 h, read-out: pLC50 (the source's name) (converted)
Reported endpoint: CC50 (µM)
Enter your answer as a number in µM; do not include the unit.

Recorded results for 3 molecules are shown here.
stdin: Quick check: CC50 of "CC1=C(SCCC(=O)OCC(=O)NCCC[Te]c2ccccc2)C(=O)c2ccccc2C1=O" ?
stdout: 15.5

stdin: Quick check: CC50 of "COc1ccc(N(CC(=O)NCCC[Te]c2ccccc2)C(=O)c2ccccc2)cc1" ?
stdout: 56.2

stdin: Quick check: CC50 of "COc1ccc(N(CC(=O)NCCC[Te]c2ccccc2)C(=O)CCSC2=C(C)C(=O)c3ccccc3C2=O)cc1" ?
stdout: 5.62

Kindly consider the entry below.
stdin: Quick check: CC50 of "COc1ccc(N(CC(=O)NCCC[Te]c2ccccc2)C(=O)CNC(=O)OC(C)(C)C)cc1" ?
stdout: 100

Hello, the source for this data is ChEMBL document CHEMBL3351600, in case you need it.
